experiment: Plasma stability; type: in vitro ADME, rat; conditions: rat plasma, 1 h, 37.5° C.
Quantity Kind: Plasma Stability (T = 1 hr) (%)
Response body: numeric value in %, unit text excluded.

Illustrative cases are given below, each with its answer.
{"columns": ["Given Smiles", "Quantity Kind", "Result Value"],
 "data": [
  ["Cc1ccc(CC(=O)c2c(O)c(O)cc3c(O)c(-c4c(C)cc5c(C(=O)Cc6ccc(C)cc6)c(O)c(O)cc5c4O)c(C)cc23)cc1", "Plasma Stability (T = 1 hr)", 72],
  ["Cc1cc2c(C(C)C)c(O)c(O)cc2c(O)c1-c1c(C)cc2c(C(C)C)c(O)c(O)cc2c1O", "Plasma Stability (T = 1 hr)", 53],
  ["Cc1cc2c(C(=O)C3CCCC3)c(O)c(O)cc2c(O)c1-c1c(C)cc2c(C(=O)C3CCCC3)c(O)c(O)cc2c1O", "Plasma Stability (T = 1 hr)", 79],
  ["Cc1cc2c(C(=O)Cc3ccccc3)c(O)c(O)cc2c(O)c1-c1c(C)cc2c(C(=O)Cc3ccccc3)c(O)c(O)cc2c1O", "Plasma Stability (T = 1 hr)", 85],
  ["Cc1cc2c(C(=O)C(C)(C)C)c(O)c(O)cc2c(O)c1-c1c(C)cc2c(C(=O)C(C)(C)C)c(O)c(O)cc2c1O", "Plasma Stability (T = 1 hr)", 90],
  ["Cc1cc2c(C(=O)c3cccc4ccccc34)c(O)c(O)cc2c(O)c1-c1c(C)cc2c(C(=O)c3cccc4ccccc34)c(O)c(O)cc2c1O", "Plasma Stability (T = 1 hr)", 62]
]}

Now examine the next entry.
Data request, read-out Plasma Stability (T = 1 hr), for Cc1cc2c(C(=O)c3nc4ccccc4s3)c(O)c(O)cc2c(O)c1-c1c(C)cc2c(C(=O)c3nc4ccccc4s3)c(O)c(O)cc2c1O
90
